- Tested on: CCRIS mutagenicity, Ames/micronucleus/aberration tests
- PROTOCOL_NOTES: CCRIS mutagenicity studies
- ASSAY_CONTEXT: Test System: AMES SALMONELLA TYPHIMURIUM; Strain/Indicator: TA1535; Metabolic Activation: HAMSTER, LIVER, S-9, AROCLOR 1254; Method: STANDARD PLATE
Calls of active or inactive are those of the source. No rule for the calls is given here.
// allowed return values: active, inactive

## Input What did this assay record as the result for `O=S(=O)(O)c1c(N=Nc2c(O)ccc3ccccc23)ccc2ccccc12` ?
## Output active

## Input What did this assay record as the result for CC(C)Cc1ccc(C(C)C(=O)O)cc1 (stereo not drawn) ?
## Output inactive

## Input What did this assay record as the result for `O=c1[nH]cnc2c1ncn2[C@H]1CC[C@@H](CO)O1` ?
## Output inactive
